tested on: ATP; assay: switch fluorescence ratio, 500 uM ATP over buffer (Cy3 cluster intensity, sum of 5 cycles each) (fold (ratio)); higher = stronger signal-on switching upon ATP binding; sequences stand for … in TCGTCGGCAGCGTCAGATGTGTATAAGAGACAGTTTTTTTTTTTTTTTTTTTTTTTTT…TC; settings: aptamer strand: ATP DNA aptamer (quencher-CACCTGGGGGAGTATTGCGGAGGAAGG + anchor), 100 nM annealed; ATP concentration: 500 uM;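 note: ATP exposure 15 min at 22 °C before imaging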
Would you mind telling me the reported switch fluorescence ratio of each entry?
Numbers only.

Take a look at these entries with their results.
• TGGGAAGAGG = 1.01
• AATGTAAACG = 0.978
• CACGGCCGAA = 0.973
• GGTTTTTCTG = 0.992
• TTTCGTGCGG = 1
• GCTGGTTGCT = 0.994

List the reported switch fluorescence ratio of each sequence below.
1. CGGGGGTCAA
2. TAGAGAGCT
3. AACGTGGGGC

Response line:
1: 0.99; 2: 1.02; 3: 1.01

For each of the sequences below, note its switch fluorescence ratio.
1. CTAGTTAGGC
2. AATGCGAGAA
3. GATTTTGGGA
4. GAAGAGAGGG

Response line:
1: 0.984; 2: 0.973; 3: 0.981; 4: 1.02

Could you report switch fluorescence ratio for every entry in the following list?
1. GAAGGCAGTG
2. TGCTAGGAG
3. TGTATTAAGG
4. GAATTAATGG

Response line:
[1, 0.995, 1.01, 1.02]

Prompt line: Which switch fluorescence ratio value is on record for CGATATGGTT ?
Response line: 1

----------
tested on: ATP; experiment: switch fluorescence ratio, 500 uM ATP over buffer (Cy3 cluster intensity, sum of 5 cycles each) (fold (ratio)); higher = stronger signal-on switching upon ATP binding; sequences stand for … in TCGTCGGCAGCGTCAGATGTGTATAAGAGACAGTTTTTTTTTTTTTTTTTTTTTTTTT…TC; settings: aptamer strand: ATP DNA aptamer (quencher-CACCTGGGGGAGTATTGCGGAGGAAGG + anchor), 100 nM annealed; ATP concentration: 500 uM;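 note: ATP exposure 15 min at 22 °C before imaging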
Can you tell me switch fluorescence ratio for the items I'm about to list?
Give bare numbers.

Sample records with switch fluorescence ratio:
* GGATATGATC | 1.03
* AAAGTGTTGC | 1.05
* TTGAGGACAG | 1.02
* GAGCGTGACG | 1
* TTCGAATGGT | 0.972

Required: switch fluorescence ratio, one value per sequence below.
1. TCGATAGCTG
2. CTTGTATAGC
3. GCCCGTTTTT
4. AAGGGTTTAA
5. GGCCTTGTGT
6. TAGGGGAGCT
7. AGGAATGGCT

Response line:
0.935
0.992
1
0.98
1.04
0.974
0.985

Record switch fluorescence ratio for all entries; do not skip any.
1. CAGTGTTATC
2. AATGGGTCGT

Response line:
[1.01, 0.967]

Please state, for each entry, its recorded switch fluorescence ratio.
1. TTCTATTACC
2. GAATTCTTGA

Response line:
[1.01, 0.953]

----------
Would you kindly list switch fluorescence ratio for each of these sequences?
tested on: ATP; experiment: switch fluorescence ratio, 500 uM ATP over buffer (Cy3 cluster intensity, sum of 5 cycles each) (fold (ratio)); higher = stronger signal-on switching upon ATP binding; sequences stand for … in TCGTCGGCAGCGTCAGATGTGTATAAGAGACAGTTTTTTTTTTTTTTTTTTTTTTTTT…TC; details: aptamer strand: ATP DNA aptamer (quencher-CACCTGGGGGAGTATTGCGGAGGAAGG + anchor), 100 nM annealed; ATP concentration: 500 uM;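 note: ATP exposure 15 min at 22 °C before imaging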

Solved cases below.
* CCGAGTGGAG | 1.08
* GTACTGTAGG | 1
* TGGCCTATCC | 1.17
* GACGAAAAGG | 1.75
* ATTGGGCTGC | 0.977
* AGGTGGGTCT | 0.991
* AGATAGAGTT | 0.997
* CGTTTTCTGT | 0.978
* GTTAACTCGG | 0.985
* AGTCTAGTGG | 0.985

Would you be so kind as to report switch fluorescence ratio for each listed record?
1. CTCGATTTAT
2. TCGAGCATCA
3. GCTGCGGTTT
4. TCGGTATGAA
5. GTGACCGCCC

Response line:
[0.995, 1.14, 0.993, 1.01, 1.49]
